target-under-test: T1, ZFP SBS#430 (synthetic)
T1 chain: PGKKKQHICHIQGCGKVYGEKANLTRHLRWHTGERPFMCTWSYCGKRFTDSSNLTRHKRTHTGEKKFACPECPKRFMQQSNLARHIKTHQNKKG
run-description: EMSA
condition-details: tags: MBP fusion
property-name: Kd (nM)
Answer with a number only, understood to be in nM.

I have this binder here, GATGACGAC (dsDNA) DNA 1: GATGACGAC DNA 2: GTCGTCATC , and I need its recorded Kd. 250
